# TARGET_OF_ASSAY: T1, flag-tagged soluble TL3 (amino acids 105-251 of SEQ ID NO:234) (Homo sapiens (Human), UniProt O75888 105-250)
# T1 construct: Heterologous flag-tagged control protein, immobilized in the ELISA; also called flagged tagged TL-3; not shown: Flag tag
# T1 sequence: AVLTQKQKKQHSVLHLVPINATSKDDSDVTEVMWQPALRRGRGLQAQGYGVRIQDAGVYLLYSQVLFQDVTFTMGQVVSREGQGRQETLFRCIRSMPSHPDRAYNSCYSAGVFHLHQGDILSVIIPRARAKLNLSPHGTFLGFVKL
# PROTOCOL_DETAILS: phage ELISA on immobilized flag-tagged soluble TL3
ASSAY_METRIC: binding result

GMBC693 (scFv) scFv: QVQLVESGGGLVKPGGSLRLSCAASGFTFSDAWMNWVRQAPGKGLEWVGRIKSKGSGGTIDYAAPVKDRFTISRDDSKNTLYLQMNSLKTEDTALYYCTWDWDFYYGMNVWGKGTLVTVSSGGGGSGGGGSGGGGSQSVLTQPASVSGSPGQSITISCTGTSSDVGGYNYVSWYQQHPGKAPKLMIYEGSKRPSGVSNRFSGSKSGDTASLTISGLQAEDEADYYCSSYTTRSTRVFGGGTKLTVLG: no binding
GMBC658 (scFv) scFv: EVQLVQSGGGLVKPGGSLRLSCAASGFTFSDAWMNWVRQAPGKGLEWVGRIKSKGSGGTIDYAAPVKDRFTISRDDSKNTLYLQMNSLKTEDTALYYCTWDWDFYYGMNVWGRGTTVTVSSGGGGSGGGGSGGGGSQSVLTQPASVSGSPGQSITISCTGTSSDVGGYNYVSWYQQHPGKAPKLMIYEGSKRPSGVSNRFSGSKSGNTASLTISGLQAEDEADYYCSSYTTRSTRVFGGGTKLTVLG: no binding
GMBC691 (scFv) scFv: EVQLVQSGAEVKKPGASMKVSCKTSGDTFNGFYVHWVRQAPGQGLEWMGRINPNGGGTNYAQKFQGRVTMTRDTSMNTAYMELRSLRSDDTAVYYCARDLFYDFWSDYYRNDQYYYMDVWGRGTLVTVSSGGGGSGGGGSGGGGSSELTQDPAVSVALGQTVRITCQGDSLRSYYASWYQQKPGQAPVLVIYGKNNRPSGIPDRFSGSSSGNTASLTITGAQAEDEADYYCNSRDSSGNHVVFGGGTKLTVLG: no binding
